test_protocol: Rat PK (IV)
test_context: in vivo, read-out: Rat PK(IV) Cl (converted)
metric: clearance (mL/min/kg)
# value in mL/min/kg; strip the unit string

Task: # clearance lookup, item CCS(=O)(=O)CCN(C(=O)Cc1ccc(F)c(C(F)(F)F)c1)[C@H](C)c1nc2ncccc2c(=O)n1-c1ccc(C#N)cc1 [drawing 199]
Result: 39.7

----------
Form field: bioavailability (one value per entry).
test_protocol: Rat PK PO
Assay type: in vivo
test_context: Sprague-Dawley, plasma, read-out: Rat PK PO F %
# value in %; strip the unit string

- compound: "CCS(=O)(=O)CCN(C(=O)Cc1ccc(C(F)(F)F)c(F)c1)[C@H](C)c1nc2ncccn2c(=O)c1-c1ccc(C#N)cc1"
  bioavailability / %: 24

Task: # bioavailability lookup, item CCS(=O)(=O)CCN(C(=O)Cc1ccc(F)c(C(F)(F)F)c1)[C@H](C)c1nc2ncccc2c(=O)n1-c1ccc(C#N)cc1 [drawing 199]
Result: 47.2
